# protocol: in vivo
# condition: New Zealand, rabbit, in vivo, 40 µg
readout: half-life (min)
A number alone suffices; assume min.

[ask] So what does the record say about half-life for NCCCC[C@H](N[C@@H](CCc1ccccc1)C(=O)O)C(=O)N1CCC[C@H]1C(=O)O ?
[reply] 756

---

# protocol: in vivo
# condition: New Zealand, rabbit, vitreous humour, 40 µg
readout: half-life (h)
A number alone suffices; assume h.

[ask] So what does the record say about half-life for NCCCC[C@H](N[C@@H](CCc1ccccc1)C(=O)O)C(=O)N1CCC[C@H]1C(=O)O ?
[reply] 41.5
